Experiment: Components of the Cytosolic LPS Sensing Pathway: Gene Identification via Genome-wide siRNA Screen;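 note: robust z of the log signal after scaling to non-targeting control siRNA wells of the plate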
Details: RAW264.7 macrophages, IL-1a HTRF, actives lie on both sides, screened at 100 nM (by protocol), cells primed 5 h with Pam3CSK4 first
About 3,700 (7%) of roughly 53,000 sequences were called active. This is one part of a sample in which actives are shown more often than they occur.
Items are presented alongside their recorded z-score.
measurement-label: z-score

polymer-sequence: GGAUCUCGAGUCUCAUCUCTT against Ccdc166
measurement-label: z-score
value: 0.851 (inactive)

polymer-sequence: CGAAGAUAAUUAUGGAGCCTT against Fat4
measurement-label: z-score
value: 0.548 (inactive)

polymer-sequence: GGAUUCAGGCUGGAAAAUATT against Clrn1
measurement-label: z-score
value: -1.04 (inactive)

polymer-sequence: CCAACCACAGGAUCAGAUGTT against Prrg4
measurement-label: z-score
value: 0.556 (inactive)

polymer-sequence: GCACCUCUACACUUUAGAUTT against Rack1
measurement-label: z-score
value: -0.0792 (inactive)

polymer-sequence: GCAUCGAUCUUGAGUUAGATT against Hebp1
measurement-label: z-score
value: 0.579 (inactive)

polymer-sequence: GGAUCUGAGCCUUAACAAGTT against Lpcat3
measurement-label: z-score
value: 2.92 (active)

polymer-sequence: GGGCAAAAUACAAAAGGAGTT against Mlph
measurement-label: z-score
value: -0.9 (inactive)

polymer-sequence: GGCAAAGUUUGGGAUUACATT against Ntng1
measurement-label: z-score
value: 1.17 (inactive)

polymer-sequence: GCAAAACUUGACUACCGCCTT against Bzw1
measurement-label: z-score
value: 2.08 (active)

polymer-sequence: GGUGGAGAUCCGAAAGCAUTT against Ltk
measurement-label: z-score
value: 0.597 (inactive)

polymer-sequence: GAGAAACAACAAUUUGGGATT against Gm20815
measurement-label: z-score
value: 2.07 (active)

polymer-sequence: GGAUCAAUUGACCACAAACTT against Magi3
measurement-label: z-score
value: 0.164 (inactive)

polymer-sequence: GCAGAGAGGAUAACUGACCTT against Slc25a44
measurement-label: z-score
value: -0.723 (inactive)

polymer-sequence: GGCUCACUCAUUUGUCAGATT against Soat1
measurement-label: z-score
value: 0.0924 (inactive)

polymer-sequence: GCUCUCACAGGAUAAGGCUTT against Cryga
measurement-label: z-score
value: -0.126 (inactive)

polymer-sequence: GGAUUAGAGAAAUAGGGCUTT against Apol10a
measurement-label: z-score
value: -2.09 (active)

polymer-sequence: GGUGACCACUUUUAUCUGATT against Olah
measurement-label: z-score
value: 0.601 (inactive)

polymer-sequence: GGAGCAGAUAAUGUACAUATT against Cep112
measurement-label: z-score
value: 2.32 (active)

polymer-sequence: GGAAUUCAUGAACUACUAUTT against Capsl
measurement-label: z-score
value: -2.07 (active)

polymer-sequence: GCUGGAUGGCCGUUUCAAATT against Fancd2os
measurement-label: z-score
value: -0.00925 (inactive)

polymer-sequence: GGCAAGUCUAAAAUACAUUTT against St6galnac4
measurement-label: z-score
value: -0.439 (inactive)

polymer-sequence: GCAUGGCUAUUUAACAUUCTT against Rpl7l1
measurement-label: z-score
value: 0.171 (inactive)

polymer-sequence: GGUAAAAUUCCAGAGUUGUTT against Serpinb9
measurement-label: z-score
value: -0.412 (inactive)

polymer-sequence: GCUCAAACGAAAUGAUUCATT against Gys2
measurement-label: z-score
value: 2.01 (active)

polymer-sequence: GGCACUUAAGUUUCAUAAGTT against Qars
measurement-label: z-score
value: 0.466 (inactive)

polymer-sequence: GAUGCCCAAUGUGCAAAUGTT against Defa-rs12
measurement-label: z-score
value: 1.06 (inactive)

polymer-sequence: CCAUAUCGAGUACCUCCAATT against Rtn4rl1
measurement-label: z-score
value: -0.522 (inactive)

polymer-sequence: GACAAGGUGCCAUACCAUUTT against Olfr351
measurement-label: z-score
value: -0.373 (inactive)

polymer-sequence: GGUAUACAGGAUGUUAAGGTT against Pdlim4
measurement-label: z-score
value: 0.889 (inactive)

polymer-sequence: GCAAGGACUCUCAUGGUUGTT against Zfand1
measurement-label: z-score
value: -0.0357 (inactive)

polymer-sequence: GGUUUGUUUGUUUUUUGGUTT against Ajuba
measurement-label: z-score
value: 2.96 (active)

polymer-sequence: GGUCCAUAACUUGUGUGCUTT against 3300002I08Rik
measurement-label: z-score
value: -0.462 (inactive)

polymer-sequence: CCAGGAUUACAUCCGGACATT against Srbd1
measurement-label: z-score
value: -0.379 (inactive)

polymer-sequence: GGGAUUUUAUCAUACAAACTT against Ppil4
measurement-label: z-score
value: 0.774 (inactive)

polymer-sequence: CCUAUGUCAUCAUUGGAGUTT against Tmem45a2
measurement-label: z-score
value: -0.613 (inactive)

polymer-sequence: GGUUCAUGAUGGAUGACAUTT against Bmerb1
measurement-label: z-score
value: -1.96 (inactive)

polymer-sequence: CCAUCCUAAGCAGAGUCACTT against Frg2f1
measurement-label: z-score
value: -0.446 (inactive)

polymer-sequence: GGAAUAUUGUGGCCUUAUATT against Bnip3
measurement-label: z-score
value: 0.489 (inactive)

polymer-sequence: GCAGUGAGACUUUUAAUAGTT against Snx17
measurement-label: z-score
value: 0.284 (inactive)

polymer-sequence: GCCAGGUUUUCUCCAUAGATT against Tmem44
measurement-label: z-score
value: -0.841 (inactive)

polymer-sequence: CCCGGAGUGGUCAGAAGUATT against Mapkapk2
measurement-label: z-score
value: -0.376 (inactive)

polymer-sequence: CCAUUCUCCUCAGAUACUCTT against Slc25a17
measurement-label: z-score
value: -1.38 (inactive)

polymer-sequence: GGUGGAAUAUAUUGAGUAUTT against Fam199x
measurement-label: z-score
value: 0.251 (inactive)

polymer-sequence: GGCAGUGGGAUUACAAUGATT against Med12
measurement-label: z-score
value: 2.02 (active)

polymer-sequence: GGAGUGUGAUCAAGUUCAUTT against Eya4
measurement-label: z-score
value: 2.16 (active)

polymer-sequence: GGCUUCAAGCUAUUCAUGATT against Dgkb
measurement-label: z-score
value: 0.126 (inactive)

polymer-sequence: GCUAUUAAAAUAUGGGAAGTT against Olfr1314
measurement-label: z-score
value: 1.28 (inactive)

polymer-sequence: GGAGCUAAGUGAUUUUAGATT against Mtf1
measurement-label: z-score
value: 0.403 (inactive)

polymer-sequence: GGCUGCUUUCUGAUGGUCATT against Marchf3
measurement-label: z-score
value: 0.595 (inactive)
